Listing of entries alongside the reported MIC.
- Tested on: vancomycin-resistant enterococci (VRE)
- assayDetails: MIC, broth micro-dilution (CLSI)
- Type: cell-based, enterococci (porcine isolates)
- assayContext: Enterococcus, VRE, VRE 7 (270 G); absence of FBS
Output spec: scalar in µg/mL, unitless text.

CCCCCCCCCC(=O)N[C@@H](Cc1c[nH]c2ccccc12)C(=O)N[C@H](CC(N)=O)C(=O)N[C@@H](CC(=O)O)C(=O)N[C@@H]1C(=O)NCC(=O)N[C@@H](CCCN)C(=O)N[C@@H](CC(=O)O)C(=O)N[C@H](C)C(=O)N[C@@H](CC(=O)O)C(=O)NCC(=O)N[C@H](CO)C(=O)N[C@@H]([C@H](C)CC(=O)O)C(=O)N[C@@H](CC(=O)c2ccccc2N)C(=O)O[C@@H]1C: 1

Form entry - test system: vancomycin-resistant enterococci (VRE); read-out: MIC; compound: C/C(=N\NC(=N)N/N=C(\C)c1ccc(C(C)(C)C)cc1)c1ccc(C(C)(C)C)cc1 2

====

Listing of entries alongside the reported MIC50.
- Tested on: S. aureus
- assayDetails: MIC, broth micro-dilution (CLSI)
- Format: cell-based, Staphylococcus aureus
- assayContext: Staphylococcus aureus, S2 Table isolates; absence of FBS
Output spec: scalar in µg/mL, unitless text.

CCCCCCCCCC(=O)N[C@@H](Cc1c[nH]c2ccccc12)C(=O)N[C@H](CC(N)=O)C(=O)N[C@@H](CC(=O)O)C(=O)N[C@@H]1C(=O)NCC(=O)N[C@@H](CCCN)C(=O)N[C@@H](CC(=O)O)C(=O)N[C@H](C)C(=O)N[C@@H](CC(=O)O)C(=O)NCC(=O)N[C@H](CO)C(=O)N[C@@H]([C@H](C)CC(=O)O)C(=O)N[C@@H](CC(=O)c2ccccc2N)C(=O)O[C@@H]1C [Daptomycin, daptomycin]: 0.5
Cl.N=C(NN=Cc1ccc(Cl)cc1)NN=Cc1ccc(Cl)cc1 [NCL812]: 2
Cc1ccc(/C=N/Nc2cc(N/N=C/c3ccc(C)cc3)nc(N)n2)cc1 [NCL195]: 2

Form entry - test system: S. aureus; read-out: MIC50; compound: C/C(=N\NC(=N)N/N=C(\C)c1ccc(C(C)(C)C)cc1)c1ccc(C(C)(C)C)cc1 [NCL219] 64

====

Listing of entries alongside the reported MIC.
- Tested on: vancomycin-resistant enterococci (VRE)
- assayDetails: MIC, broth micro-dilution (CLSI)
- Format: cell-based, enterococci (porcine isolates)
- assayContext: Enterococcus, VRE, VRE 12 (290 G); absence of FBS
Output spec: scalar in µg/mL, unitless text.

CC1(C)S[C@@H]2[C@H](NC(=O)[C@H](N)c3ccccc3)C(=O)N2[C@H]1C(=O)O [Ampicillin]: 1

Which MIC is reported for this molecule? Cl.N=C(NN=Cc1ccc(Cl)cc1)NN=Cc1ccc(Cl)cc1 [NCL812] 2

Which MIC is reported for this molecule? C/C(=N\NC(=N)N/N=C(\C)c1ccc(C(C)(C)C)cc1)c1ccc(C(C)(C)C)cc1 [NCL219] 2

Which MIC is reported for this molecule? CCCCCCCCCC(=O)N[C@@H](Cc1c[nH]c2ccccc12)C(=O)N[C@H](CC(N)=O)C(=O)N[C@@H](CC(=O)O)C(=O)N[C@@H]1C(=O)NCC(=O)N[C@@H](CCCN)C(=O)N[C@@H](CC(=O)O)C(=O)N[C@H](C)C(=O)N[C@@H](CC(=O)O)C(=O)NCC(=O)N[C@H](CO)C(=O)N[C@@H]([C@H](C)CC(=O)O)C(=O)N[C@@H](CC(=O)c2ccccc2N)C(=O)O[C@@H]1C [Daptomycin, daptomycin] 1

Which MIC is reported for this molecule? Cc1ccc(/C=N/Nc2cc(N/N=C/c3ccc(C)cc3)nc(N)n2)cc1 [NCL195] 2

====

- Tested on: vancomycin-resistant enterococci (VRE)
- assayDetails: MIC, broth micro-dilution (CLSI)
- Type: cell-based, enterococci (porcine isolates)
- assayContext: Enterococcus, VRE, VRE 20 (78 W); absence of FBS
Listing of entries alongside the reported MIC.
Output spec: scalar in µg/mL, unitless text.

Cl.N=C(NN=Cc1ccc(Cl)cc1)NN=Cc1ccc(Cl)cc1: 2
Cc1ccc(/C=N/Nc2cc(N/N=C/c3ccc(C)cc3)nc(N)n2)cc1: 4
C/C(=N\NC(=N)N/N=C(\C)c1ccc(C(C)(C)C)cc1)c1ccc(C(C)(C)C)cc1: 2

Which MIC is reported for this compound? CCCCCCCCCC(=O)N[C@@H](Cc1c[nH]c2ccccc12)C(=O)N[C@H](CC(N)=O)C(=O)N[C@@H](CC(=O)O)C(=O)N[C@@H]1C(=O)NCC(=O)N[C@@H](CCCN)C(=O)N[C@@H](CC(=O)O)C(=O)N[C@H](C)C(=O)N[C@@H](CC(=O)O)C(=O)NCC(=O)N[C@H](CO)C(=O)N[C@@H]([C@H](C)CC(=O)O)C(=O)N[C@@H](CC(=O)c2ccccc2N)C(=O)O[C@@H]1C 2

Which MIC is reported for this compound? CC1(C)S[C@@H]2[C@H](NC(=O)[C@H](N)c3ccccc3)C(=O)N2[C@H]1C(=O)O 1

====

Listing of entries alongside the reported MIC.
- Test system: S. aureus
- assayDetails: MIC, broth micro-dilution (CLSI)
- Format: cell-based, Staphylococcus aureus
- assayContext: Staphylococcus aureus, UK 15 PVL+ – HA-EMRSA (ST22); absence of FBS; read-out: MIC
Output spec: scalar in µg/mL, unitless text.

Cl.N=C(NN=Cc1ccc(Cl)cc1)NN=Cc1ccc(Cl)cc1: 4
C/C(=N\NC(=N)N/N=C(\C)c1ccc(C(C)(C)C)cc1)c1ccc(C(C)(C)C)cc1: 32
CC1(C)S[C@@H]2[C@H](NC(=O)[C@H](N)c3ccccc3)C(=O)N2[C@H]1C(=O)O: 16
Cc1ccc(/C=N/Nc2cc(N/N=C/c3ccc(C)cc3)nc(N)n2)cc1: 2

Switching to the query record.
Which MIC is reported for this compound? CCCCCCCCCC(=O)N[C@@H](Cc1c[nH]c2ccccc12)C(=O)N[C@H](CC(N)=O)C(=O)N[C@@H](CC(=O)O)C(=O)N[C@@H]1C(=O)NCC(=O)N[C@@H](CCCN)C(=O)N[C@@H](CC(=O)O)C(=O)N[C@H](C)C(=O)N[C@@H](CC(=O)O)C(=O)NCC(=O)N[C@H](CO)C(=O)N[C@@H]([C@H](C)CC(=O)O)C(=O)N[C@@H](CC(=O)c2ccccc2N)C(=O)O[C@@H]1C 0.5

====

- assayDetails: Microsomal metabolic stability
- Assay type: in vitro ADME
- assayContext: human, liver microsomes, pH 7.4; read-out: CLINT
observationType: microsomal CLint at 0.4 μg/ml (µL/min/mg)
Output spec: scalar in µL/min/mg, unitless text.

Which microsomal CLint at 0.4 μg/ml is reported for this compound? C/C(=N\NC(=N)N/N=C(\C)c1ccc(C(C)(C)C)cc1)c1ccc(C(C)(C)C)cc1 94

====

Listing of entries alongside the reported MIC.
- System: S. aureus
- assayDetails: MIC, broth micro-dilution (CLSI)
- Format: cell-based, Staphylococcus aureus
- assayContext: Staphylococcus aureus, UK 17 – HA-EMRSA (ST247); absence of FBS; read-out: MIC
Output spec: scalar in µg/mL, unitless text.

Cc1ccc(/C=N/Nc2cc(N/N=C/c3ccc(C)cc3)nc(N)n2)cc1 [NCL195]: 2
C/C(=N\NC(=N)N/N=C(\C)c1ccc(C(C)(C)C)cc1)c1ccc(C(C)(C)C)cc1 [NCL219]: 64
CCCCCCCCCC(=O)N[C@@H](Cc1c[nH]c2ccccc12)C(=O)N[C@H](CC(N)=O)C(=O)N[C@@H](CC(=O)O)C(=O)N[C@@H]1C(=O)NCC(=O)N[C@@H](CCCN)C(=O)N[C@@H](CC(=O)O)C(=O)N[C@H](C)C(=O)N[C@@H](CC(=O)O)C(=O)NCC(=O)N[C@H](CO)C(=O)N[C@@H]([C@H](C)CC(=O)O)C(=O)N[C@@H](CC(=O)c2ccccc2N)C(=O)O[C@@H]1C [Daptomycin, daptomycin]: 0.5

Switching to the query record.
Which MIC is reported for this compound? Cl.N=C(NN=Cc1ccc(Cl)cc1)NN=Cc1ccc(Cl)cc1 [NCL812] 2

====

- Tested on: S. aureus
- assayDetails: MIC, broth micro-dilution (CLSI)
- Type: cell-based, Staphylococcus aureus
- assayContext: Staphylococcus aureus, UK 16 – HA- EMRSA (ST36); absence of FBS; read-out: MIC
Listing of entries alongside the reported MIC.

Which MIC is reported for this compound? CC1(C)S[C@@H]2[C@H](NC(=O)[C@H](N)c3ccccc3)C(=O)N2[C@H]1C(=O)O [Ampicillin] > 16 µg/mL

Which MIC is reported for this compound? Cl.N=C(NN=Cc1ccc(Cl)cc1)NN=Cc1ccc(Cl)cc1 [NCL812] 4 µg/mL

Which MIC is reported for this compound? CCCCCCCCCC(=O)N[C@@H](Cc1c[nH]c2ccccc12)C(=O)N[C@H](CC(N)=O)C(=O)N[C@@H](CC(=O)O)C(=O)N[C@@H]1C(=O)NCC(=O)N[C@@H](CCCN)C(=O)N[C@@H](CC(=O)O)C(=O)N[C@H](C)C(=O)N[C@@H](CC(=O)O)C(=O)NCC(=O)N[C@H](CO)C(=O)N[C@@H]([C@H](C)CC(=O)O)C(=O)N[C@@H](CC(=O)c2ccccc2N)C(=O)O[C@@H]1C [Daptomycin, daptomycin] 0.5 µg/mL

Which MIC is reported for this compound? Cc1ccc(/C=N/Nc2cc(N/N=C/c3ccc(C)cc3)nc(N)n2)cc1 [NCL195] 1 µg/mL

Which MIC is reported for this compound? C/C(=N\NC(=N)N/N=C(\C)c1ccc(C(C)(C)C)cc1)c1ccc(C(C)(C)C)cc1 [NCL219] 32 µg/mL
